// data source = patent US6413935

molecular target: HLA-DR1 (DRB1*0101), purified from LG2 cells (human); assay: 125I-peptide inhibition, purified class II
Non-standard residues stand in square brackets, D forms with d. No end group written: not given here. Cha = N[C@@H](CC1CCCCC1)C(=O)O
reportedEndpoint: IC50 (pM)
Numbers only, in pM.

[dA]A[Cha]AAAATLKAA[dA] [760.57] ... 4500
[dA]A[Cha]IAAATLKAA[dA] [906.11] ... 380

State the recorded IC50 for this entry: [dA]A[Cha]VAAATLKAA[dA] [906.09] 610
